Reference for the values: the DeepSol protein solubility set

protocol_notes: soluble on expression in E. coli; label from the status in PepcDB or PDB records
result_type: soluble on expression in E. coli

Guide cases for soluble on expression in E. coli, answers given:
{"construct_sequence": "MGSDKIHHHHHHMGVSKRTVMRYQTCREPGSLSASDKFKSVEAALESHVKEEEARYSGKGRGDGSLWHHLVRVARLAEKLGRSEGLDPATCRLAGLFHDAGKFSGGTYHQDDRPEEERSVDILVELAGKHDLDRDIVDRIARSFQQLYRDGENQTPLTRVLFDADNLDKLGFLGIANYFIKTGLRGKGVSANMLYQLTAELTYARHAADCMATPAGRELALRKAPETYRFILDLLQSLRDDGIFDFKVEEVMFDQLLLDVVSPYSCECRGTLERRLWNVRGIKCLEIHLEHSCPRCEARHEIRFCTPKLRTQGEKNTGDLFRTSQLDIRQAADSYF", "soluble on expression in E. coli": "not soluble"}
{"construct_sequence": "MSDDIFRLATVEDASELLKLVNSAFQPIRQLDIDWPSTRADIQMVSENIEHHSAIVLERDGKLISTITIRFPWESETPPSKYPFVWWFATLPEYKGQGAGSKLLTYVEEKVLRDMLKAPALTLGTSARKHPWLADMYRRRGYEVYFEQEKDGDIGVMMHKVLIPERFNPTLLGAPSWA", "soluble on expression in E. coli": "soluble"}
{"construct_sequence": "MPILKHLLLKNRKQPMQKKFVATAVGYVPWGDGAAEYFYNLYEYEDGTRECEKFDGGQYYKIPENADFSTKAQVKAWIYGGAVPKSVLSYEALIDEMNENIKQRSQAGGEIDRQLEEALDKQLGRYKNNKKIKNYRKQLNLKHDSSALFLDGEEIYSVTACRINQKI", "soluble on expression in E. coli": "not soluble"}
{"construct_sequence": "MGSDKIHHHHHHMYGNKIVFSGLENIKDCCKMKITRDELLIAAFKLFMSVNYEKASFAELGKMLGMSKAGIFKYYKNKQELFIAVVDKFWFSTQNPRNKFTETNGTFAEFIDEYVRGVQRTMDMLGDLIGAEREKVAQGKFTYHAQYFHFLFQLLQYDPDAKEKLRNLVEVDYAYWRAAIQRAIATGELREDVDVEDAVVMFRQVYMGLSFEMAFMGGLNTQRLAKHLHAVYSLLKR", "soluble on expression in E. coli": "not soluble"}
{"construct_sequence": "MGHHHHHHSHMEFIVDSVDKTMHIGRQLGSLVNKGDILCLTGDLGTGKTHISKGIAEGLGIDEHITSPTFNIVNEYHSGRLTLYHFDVYRVNDPDEIEAIGFDEYIFGDGVSLIEWANYIEELIPEEYIHIKIEKLPDMGENFRKITINGYGDRYNYIKEIKE", "soluble on expression in E. coli": "not soluble"}

Here is the next item to consider.
Looking up MLIEPRDPLIVRDGRPFTNSPGARAKSLPFPLPQTLAGAYRTRRALLEGLPLPERAEEVLRWGLRGPLLAEEGEGGWRLLAPRPLDALKLGEALYPLRPLELPQGAGTNLPEGLSPVGLPSPALKEKPAPLPAFWYWESFLEWLLQDAPAGFAPRGHEGPVPETRTHVALDPAAQTAREGFLFQTSGLEFVRGRRRLALVLWPEGPEPEGVFPLGGERRLAFWQKGGPGVPPLPEEVVAGLLRHRAARLVFLTPAFLGEAYLPKGRAFQGASVVAAVVGRPLAVSGWNLKEGKPKPSRRAVPAGSVYFVRLPEAWGEGEVRDWAEKVWFQNLSEEEQDRRDGFGLAALGLWDGKLRRWEEA , I see its soluble on expression in E. coli listed as soluble

###

protocol_notes: soluble on expression in E. coli; label from the status in PepcDB or PDB records
result_type: soluble on expression in E. coli

Guide cases for soluble on expression in E. coli, answers given:
{"construct_sequence": "KKNYALSFNANVGFNKNKVKSLGSLMDYSADSGWASTDIQSDFKVQPGHSVGEIYGFVSDGRYEVSDFEGFIDGKWVLKAGVADASDIIGEKYLRPGAMKLKNVDGSEDNKVTKDDQKVIGDTNPFCSGGFSVNARVYGFDLTANFTYSIGNDIYNANKIEYTSSSKYKYRNMIDVMAEEKRWTNLNADGTICNDPTQLAAMNANTSMWSPWTQKYVLTDWAVEDGSFLRLATLSIGYTLPQTLTRKVGIQNLRFYATGYNLFCITNYSGFDPEVSTRTKSALTPGVDYSAYPRSRQYVIGLNLTF", "soluble on expression in E. coli": "not soluble"}
{"construct_sequence": "MSNKLETGIQYMQEGNWEEAAKNFTEAIEENPKDALGYINFANLLDVLGDSERAILFYKRALELDDKSAAAYYGLGNVYYGQEQFTEAKAVFEQAMQAGLQSADVTFMLGITHVQLGNDRLALPFLQRATELDENDVEAVFQCGLCFARLEHVQEAKPYFEKVLEMDEEHADAYYNLGVAYVFEENNEKALALFKKATEIQPDHFLAGNGVRLLEQEAE", "soluble on expression in E. coli": "not soluble"}
{"construct_sequence": "MGHHHHHHSHDFIPRGAFGKVYLAQDIKTKKRMACKLIPVDQFKPSDVEIQACFRHENIAELYGAVLWGETVHLFMEAGEGGSVLEKLESCGPMREFEIIWVTKHVLKGLDFLHSKKVIHH", "soluble on expression in E. coli": "not soluble"}
{"construct_sequence": "INAVRAALLENAHFMEKFYLQNGRFKQTSTKWPSLPIKEAEGFCIRLNGIARGALDSKFMLKAVAIDKDKNPFIIKMNENLVTFICKKSASSCSDGLDYFKGNDKDCKLLK", "soluble on expression in E. coli": "not soluble"}
{"construct_sequence": "ENAIIGVNDHTLVTESDGRRWVTREPAIVYFHKKYWFNIIAMIRDNGTSYYCNMASPYYLDEEALKYIDYDLDVKIFTDGEKRLLDVEEYERHKRKMNYS", "soluble on expression in E. coli": "not soluble"}

Looking up TLLPQVQEVAYNQMANAGYEGAVVAIKPSTGEILAMASTPSYDPSAIVNPDTAEQTWAALNADPGNPLLNHATQETLPPGSTFKVITTAAGLNAGYGPGSMLTGQDRITLPDGITTLENYAGQTCAGSQNVTLATAFQYSCNTAFVQMGIDVGKEKFDEAAHAFGVNDRYDLGVDMAPGTIGDVSDPSARGQSSIGQRDVAMSVLHNAVVAATVANGGKRMEPHLVNRIVGQDLKVIKETKPHQINEAVTPEVAATLTDLMRLSERHTAGYTGADIASKTGTAEHGEDSRNSNPHAWYIAFGPSANADVAVAVVVKNGGDAGQAATGGSVAAPIGRAVIAAAQAALAARG , I see its soluble on expression in E. coli listed as not soluble

Looking up MGHNMMTTQKWYEHITNVIIGNTANFNSGCPESIDYVDEKKGVPLAAMKYILMYTEAAASHAYLFEHDLKKFKQYAYVAGKLGILQSVDDEDPEPFFFPCDMLNIQDPMFLMLMSDSPQLREFLVRNIDNIANDTEAFVNRYDLNRHMIYNTLLMVEGKQLDRLKQRSEKVLAHPTPSKWLQKRLYDYRFFLAFAEQDAEAMKAALEPLFDKKTARMAAKETLSYFDFYLQPQIVTYAKIASMHGFDLGIDHEIAPRDLTVYDPLPADEYQDIFDFMKQYDLSYPYEYLQDWIDYYTFKTDKLVFGNAKRE , I see its soluble on expression in E. coli listed as not soluble

###

protocol_notes: soluble on expression in E. coli; label from the status in PepcDB or PDB records
result_type: soluble on expression in E. coli

{"construct_sequence": "MLSKITQELLKMNNVLLMRPDDSEFMIPDDWSGLNAKGITYEQDNRVTESFLPFKSFYCSPVCTTVELISQNNCFAMGIRYLLEKKRDLRLNHFKAFSHKCETKPDVLIMTGCTVADTYSIFSRIVEENIMKTMTPIVIITGHHSEDLCSLASKLGGVKIISPTEKIAKIENAINDAFNSKPKKIRFLTDILSPQQIETMKMVAQGRSVNEISAAMNISIKTVYAHKVRAINKLGIKKKVYEALFYKALIQFN", "soluble on expression in E. coli": "not soluble"}
{"construct_sequence": "MGSDKIHHHHHHMSTSAIDPVSFSLYAKDFTRFAQELGASFERYGFAVLSDYDLDQARIDAAVDSAKAFFALPVETKKQYAGVKGGARGYIPFGVETAKGADHYDLKEFWHMGRDLPPGHRFRAHMADNVWPAEIPAFKHDVSWLYNSLDGMGGKVLEAIATYLKLERDFFKPTVQDGNSVLRLLHYPPIPKDATGVRAGAHGDINTITLLLGAEEGGLEVLDRDGQWLPINPPPGCLVINIGDMLERLTNNVLPSTVHRVVNPPPERRGVPRYSTPFFLHFASDYEIKTLQNCVTAENPDRYPESITADEFLQQRLREIKLA", "soluble on expression in E. coli": "not soluble"}
{"construct_sequence": "MSLSGSDYCFSTLGCSELSLHETADLTERHGIANVELRALSGTIDLIAALTAEFGTPARFAAFLSERNLRVAALNTSMRLFGSDSLSEIEPFIDWAEAANIAYLRIFDGGKKIGPEDLDRSAALLDNWQAVRQTRGLNVDLMIETHDALSDFEQLLTFIEQVPAARILWDTHHTWAKGSNLKMVWRQIERNVVHLHVKDSVMDSDRERRYVLPGQGEFPISELLSLILPNERQIPLSLEWERHWHPQLPPLADALKAAHSWWRQGVSEGHHHHHH", "soluble on expression in E. coli": "soluble"}
{"construct_sequence": "GSKPVSEKIMEIKLIKGPKGLGFSIAGGVGNQHWPGDNSIYVTKIIEGGAAHKDGKLQIGDKLLAVNNVALEEVTHEEAVTALKNTSDFVYLKVAKPTS", "soluble on expression in E. coli": "soluble"}

Looking up MDPSENVFKYETAYDLLVRLGAERLFLRTCLSILDPVLELHPGKCYEIDGDLGVGKTQICYSFAAKFLQTKKTAKMGWIGATPLRTDHLLLHIEHFGNQTNEDILDRIVCKRVEKIAELQDSLTRFLDTINLQLVIVENIDAILHDTVYHKEMGRSMQSDVVERIRKLTKLEITVILTNHITHWRGYPAPALGAFWSSQINNRFFIEKRNDDSDIRIVSAMKGEQDDGMNRIEFKIGDRGLKAVE , I see its soluble on expression in E. coli listed as not soluble

Looking up MPNVIGVQFQKAGKLEYYTPNDIQVDIDDWVVVESKRGIEIGIVKNPLMDIAEEDVVLPLKNIIRVADDKDIDKFNCNERDAENALILCKDIVREQGLDMRLVNCEYTLDKSKVIFNFTADDRIDFRKLVKILAQHLKTRIELRQIGVRDEAKLLGGIGPCGRSLCCSTFLGDFEPVSIKMAKDQNLSLNPTKISGACGRLMCCLKYENDYYEEVRAQLPDIGEAIETPDGNGKVVALNILDISMQVKLEGHEQPLEYKLEEIETMHLEHHHHHH , I see its soluble on expression in E. coli listed as not soluble

Looking up MSLKHEQIINEKIIIDTSIFTNPEVYQTFGNDPTDALRSFLEIISKLKGPIFYMPQTIYEELLNFVEIKDIQVDLQMLLQQKSPKRYELTVPAFLLYELIEDVRLRIDKGLRVAETAVRETSPDTEPEAIANLRKKYRMALREGIIDSKEDVDLILLAKEMDGIMMTADTGIVKWADKLGIRYIDPRMLRSILDKLAAASEGHHHHHH , I see its soluble on expression in E. coli listed as soluble

Looking up SLPIASTATQMGSNKTRIFARQPAKAPPPLAWLSRPRDPRATAIAAAGQQSSRRVSKRELESHGSATDAWTAIHGVVYDITAYFRFHPGGAEILFIEAAGKDSTAVFDEMHPWVNVAWLLKDYRIGLYAPESEDDGGDDDDDDRTMTSPE , I see its soluble on expression in E. coli listed as soluble

Looking up MPAKIPITDNHMHIDPRARGLEAVKEFKNSGGTHIILVTKPSWSLGIAVKKPEDYLAVFDETVEIASKIREIGVGAFPVLGVHPAEISKITEYMDLSEAVETMKKGLELAAGYVERGLAVGIKSGRPHYPVPSDVWEASNEIMEHAFSLGKEQDCAVQLHTESVQEPELKDIAERARKTGIKMYRVVKHYSPPLVKTCEELGIFPGVISVKGAIEKAIEEGTRFMMETDYIDDPDRPGAVLGPKTIPKRTIKLMETYGEEPFWTIHKENPEKVYDIEIEL , I see its soluble on expression in E. coli listed as not soluble

Looking up MKAFDQVNHSLLLHKLHDFGINPLFCNWFHDFLSSRTFSVKVNNHIDPNIHPIPSGVPQGSVSGPFLFLIFINSLLLSLPPTISCSAFADDLKVYSHSPPLIQTTIDLITAWSENNKLPLAHSKTCLLHLGKKNPKTVYKINNLPISPSNVARDLGILTDSKLTFKTHIKKIVFLALLRCKQLLKSFKSLCPEFCCNLFKTYILPLIEYGSAVYSPKPSSSLSTLLEKPLRWYSQKVLQKCNISYSSYNDRLKSLNLHSIRHRRLKSKLILLYKFCCGTSFLPQKETYFKLSTSSRRPMRIICHNPSSNNFFSDTISFWNAITNNCDTFLSPIHFENLVDNSITRL , I see its soluble on expression in E. coli listed as not soluble

Looking up MGSDKIHHHHHHMKIKNDLIYDEIHALKADLYQPDNASKGLIIDIHGGGWFRGDKAKDQDLAEALVKDGFSVIVPNYRLTPDAYYPAPLDDMDTLYHWIKTSSKLFDSDRIAVVGSSAGGNMAVEMGIKYGLPIVSLSGILDIDDWLNEHTAVIAQPDHKQDFTNSKSSEINQTGQNDAFYKWFVTNYFNGNSDQYSLATPYKHVNSQPGPMFLANSLNEFVPTSGVLEMAKILTSKNVPYVEWMLPGTQHAKGYLEIVYPTVLNFLNQYI , I see its soluble on expression in E. coli listed as not soluble
